biological target: Proteasome subunit beta (Trypanosoma cruzi); assay: Trypanosoma cruzi proteasome chymotrypsin-like activity (TcProtChymo) assay.; type: functional; design: scale not given: in the data most compounds retested in dose-response had high values; settings: 9.37 µM
measurement-type: Percent Effect (%)
Numbers only; they are read as %.

// solved cases for Percent Effect follow
O=C(NCC1CCOC1)c1csc(-c2ccco2)n1 (centres undefined) ... 13.8
CCn1cc(NC(=O)C2CCN(Cc3noc(C(C)C)n3)CC2)cn1 ... 10.3
CN(Cc1nc(-c2ccco2)no1)C1CCCN(c2cccnn2)C1 (centres undefined) ... 16.1
CCc1nc(C(=O)N2CCN(C)CC2C)nn1-c1ccccc1Cl (centres undefined) ... 8.04
CCOC[C@H]1CC[C@H]2[C@H](CCN2C(=O)c2ccncc2F)O1 ... 5.92

// Percent Effect lookup, molecule = `COc1cc2nc3n(c(=O)c2cc1OC)CCN(C(C)=O)CC3` , result: 5.62

// Percent Effect lookup, molecule = COc1ccccc1CN1CCC2(CC1)CC(Oc1ccccn1)CO2 (centres undefined) , result: 14.9

// Percent Effect lookup, molecule = CC(C)c1noc(C(C)N2CCN(Cc3ccccc3C#N)CC2)n1 (centres undefined) , result: 3.81

// Percent Effect lookup, molecule = `CC(C)(C(=O)NCC(N)=O)c1ccccc1F` , result: 6.67

// Percent Effect lookup, molecule = Fc1ccc(CNCC2OCCc3cn(CC4CC4)nc32)cc1 (centres undefined) , result: 12.4

// Percent Effect lookup, molecule = CCc1noc(C)c1C(=O)N1CCCC1Cn1nc(C)cc1C (centres undefined) , result: -3.47

// Percent Effect lookup, molecule = `Cc1n[nH]cc1CNc1ccc2c(c1)CN(C(=O)OC(C)(C)C)CC2` , result: 15.5

// Percent Effect lookup, molecule = Clc1cc(CN2CCCC2Cn2cncn2)c2ncccc2c1 (centres undefined) , result: 3.95

// Percent Effect lookup, molecule = Cc1nc(C)n(CC2CN(Cc3cccc(C(N)=O)c3)CCO2)n1 (centres undefined) , result: 9.72
